test system: Enterococcus faecalis 27159; format: cell-based; details: 27159
*1 amine or outer side, *2 acyl side, *3 side chain or, on linkers, in order; H or OH if unused. Where a SMILES comes first, the peptide text is derived from it. Bridges are numbered along the chain shown (N, C = ends). [ ]: non-standard residue; d: D form. ξ: configuration not given here. Phe(3R-OH) = O=C([C@@H](N[*:1])[C@H](O[*:3])c1ccccc1)[*:2]; Phe(βR-NH) = O=C([C@@H](N[*:1])[C@H](N[*:3])c1ccccc1)[*:2]; Asn(3S-OH) = NC(=O)[C@@H](O)[C@H](N)C(=O)O; Leu(3R-OH) = CC(C)[C@@H](O)[C@H](N)C(=O)O; X1 = NC(=O)[C@@H](O)C(N[*:1])C(=O)[*:2]; d(tBuAla) = CC(C)(C)C[C@@H](N)C(=O)O; tBuAla = CC(C)(C)C[C@H](N)C(=O)O; aThr = C[C@H](O)[C@H](N)C(=O)O; ξS = NC(CO)C(=O)O
Reported MIC E. faecalis ICB 27159 values for a set of molecules
Entry rule: numbers only, all in mg/L.

Illustrative cases are given below, each with its answer.
CC[C@H](C)[C@@H]1NC(=O)[C@@H](CCCNC(=N)N)NC(=O)[C@H](CC(C)C)NC(=O)[C@H]([C@H](O)C(C)C)NC(=O)[C@@H](NC(=O)[C@H](CC(C)C)NC(=O)[C@H](N)CC(C)C)[C@@H](c2ccccc2)OC(=O)[C@H](CO)NC(=O)[C@H]([C@H](O)C(N)=O)NC(=O)CNC(=O)[C@H]([C@H](C)O)NC1=O [Lysobactin, lysobactin] (H-[dL]L[Phe(3R-OH)][Leu(3R-OH)]L[dR]I[aThr]G[Asn(3S-OH)]S; ester 3-C (inferred); N-terminus assumed) = 0.5
CC[C@H](C)[C@@H]1NC(=O)[C@@H](CCCNC(=N)N)NC(=O)[C@H](CC(C)C)NC(=O)[C@H]([C@H](O)C(C)C)NC(=O)[C@@H](NC(=O)[C@H](CC(C)(C)C)NC(=O)[C@H](N)CC(C)(C)C)[C@@H](c2ccccc2)NC(=O)[C@H](CO)NC(=O)C([C@H](O)C(N)=O)NC(=O)CNC(=O)[C@H](CO)NC1=O (stereo partly drawn) [Example 14] (H-[d(tBuAla)][tBuAla][Phe(βR-NH)][Leu(3R-OH)]L[dR]ISG[X1]S; lactam 3-C) = 0.5

// moving on: another record for MIC E. faecalis ICB 27159
Record CC[C@H](C)[C@@H]1NC(=O)[C@@H](CCCNC(=N)N)NC(=O)[C@H](CC(C)C)NC(=O)[C@H]([C@H](O)C(C)C)NC(=O)[C@@H](NC(=O)[C@H](CC(C)(C)C)NC(=O)[C@H](N)CC(C)(C)C)[C@@H](c2ccccc2)NC(=O)C(CO)NC(=O)[C@H](CO)NC(=O)CNC(=O)[C@H](CO)NC1=O (stereo partly drawn) [Example 23] (H-[d(tBuAla)][tBuAla][Phe(βR-NH)][Leu(3R-OH)]L[dR]ISGS[ξS]; lactam 3-C) , field MIC E. faecalis ICB 27159: 1

* * *

tested on: Enterococcus faecalis 27159; format: cell-based; details: 27159
*1 amine or outer side, *2 acyl side, *3 side chain or, on linkers, in order; H or OH if unused. Where a SMILES comes first, the peptide text is derived from it. Bridges are numbered along the chain shown (N, C = ends). [ ]: non-standard residue; d: D form. ξ: configuration not given here. Phe(βR-NH) = O=C([C@@H](N[*:1])[C@H](N[*:3])c1ccccc1)[*:2]; Leu(3R-OH) = CC(C)[C@@H](O)[C@H](N)C(=O)O; d(tBuAla) = CC(C)(C)C[C@@H](N)C(=O)O; tBuAla = CC(C)(C)C[C@H](N)C(=O)O; aThr = C[C@H](O)[C@H](N)C(=O)O; ξIle = CC[C@H](C)C(N)C(=O)O; ξS = NC(CO)C(=O)O; ξA = CC(N)C(=O)O
testReadout: MIC E. faecalis ICB 27159 (µg/mL)
The reply should contain only the number, in µg/mL.

CC[C@H](C)C1NC(=O)[C@H]([C@H](O)C(C)C)NC(=O)[C@@H](NC(=O)[C@H](CC(C)(C)C)NC(=O)[C@H](N)CC(C)(C)C)[C@@H](c2ccccc2)NC(=O)C(CO)NC(=O)[C@H](CO)NC(=O)CNC(=O)[C@H]([C@H](C)O)NC(=O)[C@H]([C@@H](C)CC)NC(=O)[C@@H](CCCNC(=N)N)NC1=O (stereo partly drawn) [Example 35] (H-[d(tBuAla)][tBuAla][Phe(βR-NH)][Leu(3R-OH)][ξIle][dR]I[aThr]GS[ξS]; lactam 3-C) = 1

Lab entry: Enterococcus faecalis 27159 assay, molecule CC[C@H](C)[C@@H]1NC(=O)[C@@H](CCCNC(=N)N)NC(=O)[C@H](CC(C)C)NC(=O)[C@H]([C@H](O)C(C)C)NC(=O)[C@@H](NC(=O)[C@H](CC(C)(C)C)NC(=O)[C@H](N)CC(C)(C)C)[C@@H](c2ccccc2)NC(=O)[C@H](CO)NC(=O)C(C)NC(=O)CNC(=O)[C@H]([C@H](C)O)NC1=O (stereo partly drawn) [Example 13] (H-[d(tBuAla)][tBuAla][Phe(βR-NH)][Leu(3R-OH)]L[dR]I[aThr]G[ξA]S; lactam 3-C) , MIC E. faecalis ICB 27159 = 0.5

// molecule CC[C@H](C)[C@@H]1NC(=O)[C@@H](CCCNC(=N)N)NC(=O)[C@H](CC(C)C)NC(=O)[C@H]([C@H](O)C(C)C)NC(=O)[C@@H](NC(=O)[C@H](CC(C)(C)C)NC(=O)[C@H](N)CC(C)(C)C)[C@@H](c2cccnc2)NC(=O)C(CO)NC(=O)C([C@H](O)C(N)=O)NC(=O)CNC(=O)[C@H]([C@H](C)O)NC1=O (stereo partly drawn) , assay Enterococcus faecalis 27159, MIC E. faecalis ICB 27159 value: 0.5
